# Lookup of reported protein stability index keyed by entry
B1: TRIM39 (parent)
chain: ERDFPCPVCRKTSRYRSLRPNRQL

variants of: B1; assay: protein stability index of a GFP-peptide fusion (GPS, HEK-293T) (PSI 1-6); higher = more stable; conditions: c terminus: a fixed tail appended;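 also: lentivirally expressed fusions sorted by FACS into six bins by GFP to DsRed ratio, PSI derived from sequencing read proportions per bin multiplied by bin number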
Please reply with the number alone, leaving off any unit.

Worked cases, protein stability index given:
{"sequence-variant": "Y15W", "measured": 1.95}
{"sequence-variant": "N21P", "measured": 2.12}
{"sequence-variant": "N21S", "measured": 1.91}

Entry D3P , protein stability index reported as 2.06
